- Test system: 786-0 (Kidney Carcinoma);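 note: after 72 h of two-drug dosing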
- ASSAY_SUMMARY: Bliss excess, mean over the matrix (fraction); higher = more synergy
QUANTITY_MEASURED: Bliss excess

MOLECULE	TEST_VALUE
CC1(C)CCC(CN2CCN(c3ccc(C(=O)NS(=O)(=O)c4ccc(NCC5CCOCC5)c([N+](=O)[O-])c4)c(Oc4cnc5[nH]ccc5c4)c3)CC2)=C(c2ccc(Cl)cc2)C1 [Venetoclax] + Cc1cc2ncnn2cc1Nc1ncc2c(n1)n(C1CCOCC1)c(=O)n2C [AZD7648] (first compound max 1 µM, 7x7, partner max 10 µM)	-0.0487
COc1nnc2ccc(N3CCC(c4ccc(OCCN5CCN(C)C(=O)[C@H]5C)cc4)CC3)nn12 [AZD5153] + Cn1cnc2c(F)c(Nc3ccc(Br)cc3Cl)c(C(=O)NOCCO)cc21 [Selumetinib] (first compound max 1 µM, 7x7, partner max 10 µM)	0.0143
CC1(C)CCC(CN2CCN(c3ccc(C(=O)NS(=O)(=O)c4ccc(NCC5CCOCC5)c([N+](=O)[O-])c4)c(Oc4cnc5[nH]ccc5c4)c3)CC2)=C(c2ccc(Cl)cc2)C1 [Venetoclax] + CN(C)CCCOc1ccc(-c2ccc3ncc4c(c3c2)n(C2CCOCC2)c(=O)n4C)cn1 [AZD0156] (first compound max 1 µM, 7x7, partner max 1 µM)	-0.0327

All values here come from the supplement of paper PMC11061612.
